Reported MIC values for a set of molecules
System: Mycobacterium tuberculosis
Assay: Antimycobacterial activity against INH/RIF/rifabutine/streptomycin/ethambutol/ofloxacin/gentamicin/amikacin-resistance Mycobacterium tuberculosis Praha 131 after 21 days by microbroth dilution method
Format: functional
Settings: Praha 131, 504 h
MEASURED ENDPOINT: MIC (µM)

- O=C(NCCCCl)Oc1ccc(Br)cc1C(=O)Nc1ccc(Cl)c(Cl)c1: 1
- O=C(NCCCl)Oc1ccc(Cl)cc1C(=O)Nc1ccc(C(F)(F)F)cc1: 2
- CCCNC(=O)Oc1ccc(Cl)cc1C(=O)Nc1ccc(Cl)c(Cl)c1: 1
- O=C(NCCCl)Oc1ccc(Br)cc1C(=O)Nc1ccc(C(F)(F)F)cc1: 2
- O=C(Oc1ccc(Cl)cc1C(=O)Nc1ccc(C(F)(F)F)cc1)c1cnc(Cl)cn1: 1
- O=C(NCCCl)Oc1ccc(Br)cc1C(=O)Nc1ccc(Cl)c(Cl)c1: 2
- O=C(Oc1ccc(Br)cc1C(=O)Nc1ccc(C(F)(F)F)cc1)c1cnc(Cl)cn1: 2
- O=C(Oc1ccc(Cl)cc1C(=O)Nc1ccc(C(F)(F)F)cc1)c1cnccn1: 1
- O=C(NCCCCl)Oc1ccc(Br)cc1C(=O)Nc1ccc(C(F)(F)F)cc1: 2
- O=C(Oc1ccc(Cl)cc1C(=O)Nc1ccc(Cl)c(Cl)c1)c1cnccn1: 0.125
- O=C(Oc1ccc(Br)cc1C(=O)Nc1ccc(C(F)(F)F)cc1)c1cnccn1: 0.5
- O=C(Oc1ccc(Cl)cc1C(=O)Nc1ccc(Cl)c(Cl)c1)c1cnc(Cl)cn1: 2
- O=C(NCCCCl)Oc1ccc(Cl)cc1C(=O)Nc1ccc(C(F)(F)F)cc1: 2

* * *

Reported selectivity ratio at 504 h values for a set of molecules
Test: Selectivity index, ratio of IC50 for human MONO-MAC-6 cells to MIC for INH/RIF/rifabutine/streptomycin/ethambutol/ofloxacin/gentamicin/amikacin-resistance Mycobacterium tuberculosis Praha 131 after 21 days
Assay type: toxicity
Details: read-out: Selectivity Index
MEASURED ENDPOINT: selectivity ratio at 504 h

- CCCNC(=O)Oc1ccc(Cl)cc1C(=O)Nc1ccc(Cl)c(Cl)c1: 7
- O=C(NCCCl)Oc1ccc(Br)cc1C(=O)Nc1ccc(C(F)(F)F)cc1: 4.7
- O=C(Oc1ccc(Br)cc1C(=O)Nc1ccc(C(F)(F)F)cc1)c1cnc(Cl)cn1: 0.6
- O=C(NCCCl)Oc1ccc(Br)cc1C(=O)Nc1ccc(Cl)c(Cl)c1: 3.5
- O=C(Oc1ccc(Cl)cc1C(=O)Nc1ccc(C(F)(F)F)cc1)c1cnc(Cl)cn1: 1.1

* * *

Experiment: Selectivity index, ratio of IC50 for human MONO-MAC-6 cells to MIC for INH/RIF/rifabutine/streptomycin-resistance Mycobacterium tuberculosis 9449/2006 after 21 days
Type: toxicity
Details: read-out: Selectivity Index
In plain terms, low selectivity ratio at 504 h, meaning strictly below 4, gives satisfied, and everything else gives not satisfied.

- O=C(NCCCCl)Oc1ccc(Cl)cc1C(=O)Nc1ccc(C(F)(F)F)cc1: not satisfied
- O=C(NCCCl)Oc1ccc(Br)cc1C(=O)Nc1ccc(C(F)(F)F)cc1: not satisfied
- O=C(Oc1ccc(Cl)cc1C(=O)Nc1ccc(C(F)(F)F)cc1)c1cnc(Cl)cn1: satisfied
- O=C(NCCCl)Oc1ccc(Cl)cc1C(=O)Nc1ccc(C(F)(F)F)cc1: not satisfied
- O=C(NCCCCl)Oc1ccc(Br)cc1C(=O)Nc1ccc(Cl)c(Cl)c1: not satisfied
- O=C(Oc1ccc(Cl)cc1C(=O)Nc1ccc(Cl)c(Cl)c1)c1cnc(Cl)cn1: not satisfied
- O=C(Oc1ccc(Br)cc1C(=O)Nc1ccc(C(F)(F)F)cc1)c1cnc(Cl)cn1: satisfied
- O=C(NCCCCl)Oc1ccc(Br)cc1C(=O)Nc1ccc(C(F)(F)F)cc1: satisfied
- CCCNC(=O)Oc1ccc(Cl)cc1C(=O)Nc1ccc(Cl)c(Cl)c1: not satisfied
- O=C(NCCCl)Oc1ccc(Br)cc1C(=O)Nc1ccc(Cl)c(Cl)c1: satisfied

* * *

Test system: Mycobacterium tuberculosis
Test: Antimycobacterial activity against multidrug-resistance Mycobacterium tuberculosis A8 after 28 days by serial dilution method
Assay type: functional
Conditions: Mycobacterium tuberculosis, A8, 672 h
In plain terms, low MIC, meaning strictly below 4 µM, gives 1, and everything else gives -1.

• O=C(NCCCl)Oc1ccc(Br)cc1C(=O)Nc1ccc(C(=O)c2ccccc2)cc1 = -1
• O=C(Nc1ccc(C(F)(F)F)cc1)c1cc(Br)ccc1O = 1
• O=C(c1ccccc1)c1ccc(NC(=O)c2cc(Cl)ccc2O)cc1 = -1
• O=C(Oc1ccc(Cl)cc1C(=O)Nc1ccc(Cl)c(Cl)c1)c1cnc(Cl)cn1 = -1
• CCCNC(=O)Oc1ccc(Cl)cc1C(=O)Nc1ccc(C(=O)c2ccccc2)cc1 = -1

* * *

Assay: Selectivity index, ratio of IC50 for human MONO-MAC-6 cells to MIC for INH/RIF/rifabutine/streptomycin/ethambutol/ofloxacin/gentamicin/amikacin-resistance Mycobacterium tuberculosis Praha 131 after 21 days
Type: toxicity
Details: read-out: Selectivity Index
Please enter 1 where selectivity ratio at 504 h is greater than or equal to 4, and -1 where it is lower.

* O=C(NCCCCl)Oc1ccc(Br)cc1C(=O)Nc1ccc(C(F)(F)F)cc1 | -1
* O=C(NCCCl)Oc1ccc(Cl)cc1C(=O)Nc1ccc(C(F)(F)F)cc1 | -1
* O=C(NCCCCl)Oc1ccc(Cl)cc1C(=O)Nc1ccc(C(F)(F)F)cc1 | 1
* O=C(Oc1ccc(Cl)cc1C(=O)Nc1ccc(Cl)c(Cl)c1)c1cnc(Cl)cn1 | 1
* O=C(NCCCCl)Oc1ccc(Br)cc1C(=O)Nc1ccc(Cl)c(Cl)c1 | 1

Source listed as ChEMBL document CHEMBL3612041.
